tested on: Mycobacterium tuberculosis Erdman (autoluminescent); test: GRinf, maximum normalised growth rate inhibition (three-drug combination) (unitless (-1 to 1)); higher = less effect (negative = killing); conditions: in vitro model: acidic pH 5.7; time point: terminal (~4-5 doublings, model-specific)
Measurement Label: GRinf
One number for each entry.

Enter reported GRinf observed with Mycobacterium tuberculosis Erdman (autoluminescent) for CC(C)/N=c1\cc2n(-c3ccc(Cl)cc3)c3ccccc3nc-2cc1Nc1ccc(Cl)cc1 [clofazimine] + COc1c(N2C[C@@H]3CCCN[C@@H]3C2)c(F)cc2c(=O)c(C(=O)O)cn(C3CC3)c12 [moxifloxacin] + CO[C@H]1/C=C/O[C@@]2(C)Oc3c(C)c(O)c4c(O)c(c(/C=N/N5CCN(C6CCCC6)CC5)c(O)c4c3C2=O)NC(=O)/C(C)=C\C=C\[C@H](C)[C@H](O)[C@@H](C)[C@@H](O)[C@@H](C)[C@H](OC(C)=O)[C@@H]1C [rifapentine]
-0.157

====

Please provide measured GRinf for the entries that follow.
system: Mycobacterium tuberculosis Erdman (autoluminescent); assay: GRinf, maximum normalised growth rate inhibition (unitless (-1 to 1)); higher = less effect (negative = killing); settings: in vitro model: acidic pH 5.7; time point: constant (~7 days, model-specific)
Answers are plain numbers.

In the examples that follow, each entry is paired with its recorded GRinf.
>>> reported_measurement("O=[N+]([O-])c1cn2c(n1)OC[C@@H](OCc1ccc(OC(F)(F)F)cc1)C2 [pretomanid] + NC(=O)c1cnccn1 [pyrazinamide]")
-0.435
>>> reported_measurement("NC(=O)c1cnccn1 [pyrazinamide] + CO[C@H]1/C=C/O[C@@]2(C)Oc3c(C)c(O)c4c(O)c(c(/C=N/N5CCN(C)CC5)c(O)c4c3C2=O)NC(=O)/C(C)=C\\C=C\\[C@H](C)[C@H](O)[C@@H](C)[C@@H](O)[C@@H](C)[C@H](OC(C)=O)[C@@H]1C")
-0.451
>>> reported_measurement("COc1nc2ccc(Br)cc2cc1[C@@H](c1ccccc1)[C@@](O)(CCN(C)C)c1cccc2ccccc12 [bedaquiline] + CC(=O)NC[C@H]1CN(c2ccc(N3CCOCC3)c(F)c2)C(=O)O1 [linezolid]")
-0.481

# ---- query compound ----
Tell me reported GRinf for NNC(=O)c1ccncc1 [isoniazid] + CO[C@H]1/C=C/O[C@@]2(C)Oc3c(C)c(O)c4c(O)c(c(/C=N/N5CCN(C)CC5)c(O)c4c3C2=O)NC(=O)/C(C)=C\C=C\[C@H](C)[C@H](O)[C@@H](C)[C@@H](O)[C@@H](C)[C@H](OC(C)=O)[C@@H]1C , tested with Mycobacterium tuberculosis Erdman (autoluminescent).
-0.381

====

test system: Mycobacterium tuberculosis Erdman (autoluminescent); test: Einf, fitted maximum growth inhibition of three-drug combination (fraction); higher = stronger maximal inhibition; details: in vitro model: cholesterol 0.05 mM; time point: constant (~7 days, model-specific)
Task for the reader: assign each of the following compounds its reported Einf.
Answers are plain numbers.

Example entries and their recorded answers appear below.
>>> reported_measurement("COc1nc2ccc(Br)cc2cc1[C@@H](c1ccccc1)[C@@](O)(CCN(C)C)c1cccc2ccccc12 [bedaquiline] + NNC(=O)c1ccncc1 [isoniazid] + NC(=O)c1cnccn1 [pyrazinamide]")
0.726
>>> reported_measurement("COc1nc2ccc(Br)cc2cc1[C@@H](c1ccccc1)[C@@](O)(CCN(C)C)c1cccc2ccccc12 [bedaquiline] + NC(=O)c1cnccn1 [pyrazinamide] + CO[C@H]1/C=C/O[C@@]2(C)Oc3c(C)c(O)c4c(O)c(c(/C=N/N5CCN(C6CCCC6)CC5)c(O)c4c3C2=O)NC(=O)/C(C)=C\\C=C\\[C@H](C)[C@H](O)[C@@H](C)[C@@H](O)[C@@H](C)[C@H](OC(C)=O)[C@@H]1C [rifapentine]")
0.75
>>> reported_measurement("CC(C)/N=c1\\cc2n(-c3ccc(Cl)cc3)c3ccccc3nc-2cc1Nc1ccc(Cl)cc1 [clofazimine] + CC[C@@H](CO)NCCN[C@@H](CC)CO [ethambutol] + NNC(=O)c1ccncc1 [isoniazid]")
0.751
>>> reported_measurement("CC(C)/N=c1\\cc2n(-c3ccc(Cl)cc3)c3ccccc3nc-2cc1Nc1ccc(Cl)cc1 [clofazimine] + NNC(=O)c1ccncc1 [isoniazid] + CO[C@H]1/C=C/O[C@@]2(C)Oc3c(C)c(O)c4c(O)c(c(/C=N/N5CCN(C6CCCC6)CC5)c(O)c4c3C2=O)NC(=O)/C(C)=C\\C=C\\[C@H](C)[C@H](O)[C@@H](C)[C@@H](O)[C@@H](C)[C@H](OC(C)=O)[C@@H]1C [rifapentine]")
0.666
>>> reported_measurement("NNC(=O)c1ccncc1 [isoniazid] + COc1c(N2C[C@@H]3CCCN[C@@H]3C2)c(F)cc2c(=O)c(C(=O)O)cn(C3CC3)c12 [moxifloxacin] + CO[C@H]1/C=C/O[C@@]2(C)Oc3c(C)c(O)c4c(O)c(c(/C=N/N5CCN(C6CCCC6)CC5)c(O)c4c3C2=O)NC(=O)/C(C)=C\\C=C\\[C@H](C)[C@H](O)[C@@H](C)[C@@H](O)[C@@H](C)[C@H](OC(C)=O)[C@@H]1C [rifapentine]")
0.644

Return reported Einf values for all items listed beneath this line.
1. CC(C)/N=c1\cc2n(-c3ccc(Cl)cc3)c3ccccc3nc-2cc1Nc1ccc(Cl)cc1 [clofazimine] + CC[C@@H](CO)NCCN[C@@H](CC)CO [ethambutol] + CO[C@H]1/C=C/O[C@@]2(C)Oc3c(C)c(O)c4c(O)c(c(/C=N/N5CCN(C)CC5)c(O)c4c3C2=O)NC(=O)/C(C)=C\C=C\[C@H](C)[C@H](O)[C@@H](C)[C@@H](O)[C@@H](C)[C@H](OC(C)=O)[C@@H]1C [rifampicin]
2. CC(C)/N=c1\cc2n(-c3ccc(Cl)cc3)c3ccccc3nc-2cc1Nc1ccc(Cl)cc1 [clofazimine] + COc1c(N2C[C@@H]3CCCN[C@@H]3C2)c(F)cc2c(=O)c(C(=O)O)cn(C3CC3)c12 [moxifloxacin] + O=[N+]([O-])c1cn2c(n1)OC[C@@H](OCc1ccc(OC(F)(F)F)cc1)C2 [pretomanid]
3. NNC(=O)c1ccncc1 [isoniazid] + COc1c(N2C[C@@H]3CCCN[C@@H]3C2)c(F)cc2c(=O)c(C(=O)O)cn(C3CC3)c12 [moxifloxacin] + O=[N+]([O-])c1cn2c(n1)OC[C@@H](OCc1ccc(OC(F)(F)F)cc1)C2 [pretomanid]
4. CC(C)/N=c1\cc2n(-c3ccc(Cl)cc3)c3ccccc3nc-2cc1Nc1ccc(Cl)cc1 [clofazimine] + O=[N+]([O-])c1cn2c(n1)OC[C@@H](OCc1ccc(OC(F)(F)F)cc1)C2 [pretomanid] + CO[C@H]1/C=C/O[C@@]2(C)Oc3c(C)c(O)c4c(O)c(c(/C=N/N5CCN(C6CCCC6)CC5)c(O)c4c3C2=O)NC(=O)/C(C)=C\C=C\[C@H](C)[C@H](O)[C@@H](C)[C@@H](O)[C@@H](C)[C@H](OC(C)=O)[C@@H]1C [rifapentine]
5. COc1nc2ccc(Br)cc2cc1[C@@H](c1ccccc1)[C@@](O)(CCN(C)C)c1cccc2ccccc12 [bedaquiline] + NC(=O)c1cnccn1 [pyrazinamide] + CO[C@H]1/C=C/O[C@@]2(C)Oc3c(C)c(O)c4c(O)c(c(/C=N/N5CCN(C)CC5)c(O)c4c3C2=O)NC(=O)/C(C)=C\C=C\[C@H](C)[C@H](O)[C@@H](C)[C@@H](O)[C@@H](C)[C@H](OC(C)=O)[C@@H]1C [rifampicin]
6. NNC(=O)c1ccncc1 [isoniazid] + CC(=O)NC[C@H]1CN(c2ccc(N3CCOCC3)c(F)c2)C(=O)O1 [linezolid] + CO[C@H]1/C=C/O[C@@]2(C)Oc3c(C)c(O)c4c(O)c(c(/C=N/N5CCN(C6CCCC6)CC5)c(O)c4c3C2=O)NC(=O)/C(C)=C\C=C\[C@H](C)[C@H](O)[C@@H](C)[C@@H](O)[C@@H](C)[C@H](OC(C)=O)[C@@H]1C [rifapentine]
7. NNC(=O)c1ccncc1 [isoniazid] + COc1c(N2C[C@@H]3CCCN[C@@H]3C2)c(F)cc2c(=O)c(C(=O)O)cn(C3CC3)c12 [moxifloxacin] + CO[C@H]1/C=C/O[C@@]2(C)Oc3c(C)c(O)c4c(O)c(c(/C=N/N5CCN(C)CC5)c(O)c4c3C2=O)NC(=O)/C(C)=C\C=C\[C@H](C)[C@H](O)[C@@H](C)[C@@H](O)[C@@H](C)[C@H](OC(C)=O)[C@@H]1C [rifampicin]

0.684
0.707
0.746
0.719
0.776
0.735
0.603

====

test system: Mycobacterium tuberculosis Erdman (autoluminescent); assay: total FIC50 (Loewe) at 50% inhibition, three-drug combination (log2); higher = more antagonistic; details: in vitro model: butyrate; time point: constant (~7 days, model-specific)
For each record, write down the corresponding total FIC50.
Numbers only.

>>> reported_measurement("COc1nc2ccc(Br)cc2cc1[C@@H](c1ccccc1)[C@@](O)(CCN(C)C)c1cccc2ccccc12 [bedaquiline] + NNC(=O)c1ccncc1 [isoniazid] + CO[C@H]1/C=C/O[C@@]2(C)Oc3c(C)c(O)c4c(O)c(c(/C=N/N5CCN(C)CC5)c(O)c4c3C2=O)NC(=O)/C(C)=C\\C=C\\[C@H](C)[C@H](O)[C@@H](C)[C@@H](O)[C@@H](C)[C@H](OC(C)=O)[C@@H]1C [rifampicin]")
0.575
>>> reported_measurement("CC[C@@H](CO)NCCN[C@@H](CC)CO [ethambutol] + COc1c(N2C[C@@H]3CCCN[C@@H]3C2)c(F)cc2c(=O)c(C(=O)O)cn(C3CC3)c12 [moxifloxacin] + CO[C@H]1/C=C/O[C@@]2(C)Oc3c(C)c(O)c4c(O)c(c(/C=N/N5CCN(C6CCCC6)CC5)c(O)c4c3C2=O)NC(=O)/C(C)=C\\C=C\\[C@H](C)[C@H](O)[C@@H](C)[C@@H](O)[C@@H](C)[C@H](OC(C)=O)[C@@H]1C [rifapentine]")
0.508

Give its total FIC50 value. Item: CC(C)/N=c1\cc2n(-c3ccc(Cl)cc3)c3ccccc3nc-2cc1Nc1ccc(Cl)cc1 [clofazimine] + CC[C@@H](CO)NCCN[C@@H](CC)CO [ethambutol] + O=[N+]([O-])c1cn2c(n1)OC[C@@H](OCc1ccc(OC(F)(F)F)cc1)C2 [pretomanid]
0.411

Sourced from the supplement of paper PMC8617591
